- runDescription: yeast display, Sf9 membrane polyspecificity reagent, FACS + sequencing; frameworks hold sequencing errors
quantity: polyreactivity (PSR sort gate)

Some sequences with recorded polyreactivity (PSR sort gate):
# chainSequence, polyreactivity (PSR sort gate)
records = [
    ("QVQLVETGGGLVQARGSLRLSCAASVRIFYYNAMGWYRQSPGKERELVAAITRSGSTNYAESVKGRFTISRDNAKNTVYLKMNSLKPEDTAVYYCAADSLKRYDYWGQGTQVTVSS", "low polyreactivity"),
    ("QVQLEESGGGLVQAGGSLRLSCAASGITFLNYAMGWYRQATGKERELVAAISWSGGRTYYADSVKGRFTISRDNAKNTVYLQMNSLKPEDTAVYYCAVRGSWYSEHNYWGQGTQVTVSS", "high polyreactivity"),
    ("QVQLVESGGGLVQAGGSLRLSCAASGSIFSYNAMGWYRQAPGKERELVAAISRNGGRTYYADSVKGRFTISRDNAKNTVYLQMNSLKPEDTAVYYCNNAGYRAGTGSYDYWGQGTQVTVSS", "high polyreactivity"),
    ("QVQLVESGGGLDQAGGSLRLSCAASGLIFRRYAMGWYRQAPGKEREFVAAIRWNGGTTYYADSVKGRFTISRDNAKYTVYLQMNSLKPEDTAVYYCAARVYPAYPRGYDYWGQGTQVTVSS", "high polyreactivity"),
    ("QVQLVESVGGVVQAGGSLGLSCAASGRPFGRNVMGWYRQAPGKERELVAAISRSGGSTYYADSVKGRFTISRDNAKNTVYFQMNSLKPEDTAVYYCAAYSVGDYYWGQGTQVTVSS", "high polyreactivity"),
]

Attention now turns to another entry.
Lab note: QVQLVESGGGLVQAGASLRLSCAASGSIFKDYAMGWYRQAPWKERDLLAAITSRTSTTYADSVKGRFTISRDNAKNTVYLQMNSLKPEDTAVYYCAVEDLGSEGWGWYKEMDYWGQGTQVTVSS gave polyreactivity (PSR sort gate) of low polyreactivity

* * *

- runDescription: yeast display, Sf9 membrane polyspecificity reagent, FACS + sequencing; frameworks hold sequencing errors
quantity: polyreactivity (PSR sort gate)

# chainSequence, polyreactivity (PSR sort gate)
measured = [
    ("PVKLVESGGGLVQAGGSLRLSCAASGFTFFRNAMGWYRQAPGKERELVAAISGSGGRTYDADSVKGRFTISRDNAKNPVYLQLNSLKLEDTAVYYCAAVPVDPGYDYWGQGTQVTVSS", "high polyreactivity"),
    ("QVQLVESGRGLVQAGGSLRLICAASGLTFHRYAMGWYRQAPGKERELVAALTWRGVSTYYADSVKGRFTISRDNAKNTVYLQMNSLKPEDTAVYYCAADDYFYDPYEYWGQGTIVTVSS", "high polyreactivity"),
    ("QVQLVESGGGLVQAGGSIRISCAASGITFIDYTMGWYRQAPGKERELVAVITKTGYRTYYADSVKGRFTISRDNANNSDYLQMNSLNRSDSAVYYCNALYYIHYYEGYGYWGQGTQVTVSS", "high polyreactivity"),
    ("QVQLVESGGGLVQAGGSLRLSCAASGRIFTWNAMGWYRQAPGKERELVASISRSGTSTYYADSVKGRFTISRDNAKNTVYLQMNSLKPEDTAVYYCNARTIYYYFRLSTPYNYWGQGTQVTVSS", "high polyreactivity"),
]

Lab note: QVQLVESGGGLVQAGGSLRLRCAASGSIFGPNALGWYRQAAGKERELVAAISSGGSTNYADSVKGRFTISRDNAKNTVYLQMNSLKPEDTAVYYCAKDNYLDPPYFYRFAGYDYRGQGTQVTVSS gave polyreactivity (PSR sort gate) of low polyreactivity

Lab note: QVQLVESGGGLVQAGGSLRLSCAASGSIFIVNAMGWYRQAPGKERELVATITSDVDTNYADSVKGRFTISRDNAKNTVYLQMNSLKPEDTAVYYCAKESTKIYRVVEMDYWGQGTQVTVSS gave polyreactivity (PSR sort gate) of low polyreactivity

* * *

- runDescription: yeast display, Sf9 membrane polyspecificity reagent, FACS + sequencing; frameworks hold sequencing errors
quantity: polyreactivity (PSR sort gate)

Some sequences with recorded polyreactivity (PSR sort gate):
# chainSequence, polyreactivity (PSR sort gate)
data = [
    ("QVQLVESGGGLVQAGGSLRLSCAASGSTFIGYAMGWYRQAPGKERELVAGIRWSGGRTYYADSVKGRFTISRDNAKNTVYLHMNSLKPEDTAVYYCNARFYASAKGYDYWGQGTQVTVSS", "low polyreactivity"),
    ("QVQLVESGVGLVQAGGSLRLSCAASGFTFKSYTMGWYRQAPGKERELVANISRRGGSTYYADSVKGRFTISRDTAKNTVYLQMNRLKPEDTAVYYCAADAYGFLYTTYRYFYWGQGTQVTVST", "high polyreactivity"),
    ("QVQLVESGGGLVQAGGSLRLSCAASGSTFEDNTMGWYRQAPGKERELVAAISNSGGSTYYADSVKGRFTISRDNAKNTVYLQMNSLKPEDTAVYYCAADFYDPFDYWGQGTQVTVSS", "low polyreactivity"),
    ("QVQQQESGGGLVQAGGSLRLSCAASGTIFQLTVMGRYRQAPGNERELVASIDYGGNTNYADSVKGRFTISRDNAKNTVYLQMNILKPEDTAVYYCPASSDSWTTHPYWGQGTQVTLSS", "low polyreactivity"),
    ("QVQLVESGGGLVQAGGSLRLSCAASGRIYSYYAMGWYRQAPGKERELVATINSGGSTNYADSVNGRFTISRDNAKNTVYLQMKSLKPEDTAVYYCGALRDRDITVYYDTGRMYYWGQGTQVNVSS", "low polyreactivity"),
]

Lab note: QVQLVESGGGLVQAGGSLRLSCAASGSTFYTYAMGWYRQAPGKERELVAAISADGGRTYYADSVKGRFTISRDNAKNTVYLQMNSLKPEDTAVYYCAAEERRWSSYRYYYWGQGTQVTVSS gave polyreactivity (PSR sort gate) of high polyreactivity

Lab note: QVQLVESGGGLVQAGGSLRLSCAASGRTFTGYAMGWYRQAPGKERELVAAMSASGGSTYYADSVKGRFTISRDNAKNTVYLQMNSLKPEDTAVYYCAAETWYSVLWEEGYDYWGQGTQVTVSS gave polyreactivity (PSR sort gate) of low polyreactivity

Lab note: QVQLVESGGGLVQAGGSLRISCAASAITFEPYAMGWYRQAPGTEREFVAAISRSGGSTYYADSVKGRFTISRDNAKNTVYLQMNSLKPEDTAVYYCAADSWIGPDYGHDYRGQGTQVTVSS gave polyreactivity (PSR sort gate) of high polyreactivity

Lab note: QVQLVESGGGLVQAGGSLRLSCAASGRIFALYAMGWYRQAPGKERELVASITGGTSTNYADSVKGRFTISRDNAKNTVYLQMNSLKPEDTEVYYCAARGYTTGTRNRRYNYWGQGTQVTVSS gave polyreactivity (PSR sort gate) of high polyreactivity

Lab note: QVQLVETGGGLVQAGGSLRLSCAASGSTFVWYDMGRYRQAPGKERELVATITSGGITTYADSVKGRFTISRDNAKNTVYLKMNSLKPEDTAVYYCNADLYYWLRYYDRNDYLGQGTQVTVSS gave polyreactivity (PSR sort gate) of low polyreactivity

* * *

- runDescription: yeast display, Sf9 membrane polyspecificity reagent, FACS + sequencing; frameworks hold sequencing errors
quantity: polyreactivity (PSR sort gate)

Some sequences with recorded polyreactivity (PSR sort gate):
# chainSequence, result
rows = [
    ("QVQLVESGGRLVQAGGSLRLSCAASGRIFVVNAMGWYRQAPGKERELVAAIDRSGGSTYYADSVKGRFTISRDNAKNTVYLQMNSLKPEDTAVYYCNTGRRYYSYRRDYWGQGTQVTVSS", "high polyreactivity"),
    ("QVQLVESVGGLVQAGGTLRLSCAASGSTFNINAMGWYRQAPGKERELVAAISWSGDITYYADSVKGRFTISRDNAKNTVYLQMNSLKPEDTAVYYCNTDDPVNYWYAEYDYWGQGTQVTVSS", "low polyreactivity"),
    ("QVHLVESGGGLVQAGGSHRLSCAASGRIFRGYAMGWYIQAPGKERELVAAISGRGGRTYYADSVKGRFTISRDNAKNTVYLQMNSLKPEDTAVYYCNARRGRRGYYGNGDYWGQGTQVTVSS", "high polyreactivity"),
    ("QVQLVESGGGLVQAGGSLRLSCAASGFNFPDYAMGWYRQAPGKETELVAAITSAGGRTYYADSVKGRFTISRDNAKNTVYLQMNSLKPEDTAVFYCNALTTKGTGTYNGGYWGEGTQVTVSS", "high polyreactivity"),
    ("EVQLVESGGGLVQAGGSLRLSCAASGSIFYTNTMGWYRQAPGKERELVATGSTYYADSVKGRFTISRDNAKNTVYLQMNSLKPEDTAVYYCAKRGDFLTTRYESGSAASDYWGQGTQVTVSS", "low polyreactivity"),
]

Attention now turns to another entry.
Lab note: QVQLVESGGGLVQAVGSLRLSCAASGGIFTLYVMGWYRQAPGKERELVAAISRTGGSTYYADSVKGRFTISRDNAKNTVYLQMNSLKPEDTAVYYCAALYRGGTRYGGYDYWGQGTQVTVSS gave polyreactivity (PSR sort gate) of low polyreactivity
